# SYSTEM_UNDER_TEST: GABA-A receptor; anion channel
# TEST_PROTOCOL: Displacement of [3H]flunitrazepam (FNZ) from GABA-A benzodiazepine receptor in rat forebrain
QUANTITY: IC50

INSERT INTO assay_data (mol_smiles, quantity, measurement) VALUES
  ('Oc1nc2c(c3nc(-c4ccccc4F)nn13)CNCC2', 'IC50', '442 nM'),
  ('Oc1nc2c(c3nc(-c4ccc[nH]4)nn13)CN(Cc1ccccc1)CC2', 'IC50', '7.6 nM'),
  ('Oc1nc2c(c3nc(-c4ccccc4Cl)nn13)CN(Cc1ccccc1)CC2', 'IC50', '1.7 nM'),
  ('Oc1nc2ccc(Cl)cc2c2nc(-c3ccccc3F)nn12', 'IC50', '0.5 nM'),
  ('NC(=O)N1CCc2nc(O)n3nc(-c4ccccc4F)nc3c2C1', 'IC50', '67 nM'),
  ('O=C(Cc1ccccc1)N1CCc2nc(O)n3nc(-c4ccccc4F)nc3c2C1', 'IC50', '140 nM'),
  ('Oc1nc2c(c3nc(-c4ccc(Cl)cc4)nn13)CN(Cc1ccccc1)CC2', 'IC50', '22.4 nM');

* * *

# SYSTEM_UNDER_TEST: GABA-A receptor; anion channel (Rattus norvegicus) (UniProt O09028+P15431+P18506+P18508+P19969+P20236+P23574+P23576+P28471+P28473+P30191+P62813+P63079+P63138+Q91ZM7+Q9ES14)
# TEST_PROTOCOL: GABA ratio measured by the IC50 in the absence of GABA compared to the IC50 in the presence of GABA in rats.
QUANTITY: GABA ratio

INSERT INTO measurements (compound, measurement) VALUES
  ('Oc1nc2ccc(Cl)cc2c2nc(-c3ccccc3F)nn12', 0.79),
  ('Cc1ccc(S(=O)(=O)N2CCc3nc(O)n4nc(-c5ccccc5F)nc4c3C2)cc1', 0.99),
  ('Oc1nc2c(c3nc(-c4ccccc4F)nn13)CN(Cc1ccccc1)CC2', 1.06),
  ('O=C1C2C=Nc3ccccc3C2=NN1c1ccccc1 (stereo not drawn) [CGS-8216]', 0.82),
  ('CCOC(=O)N1CCc2nc(O)n3nc(-c4ccccc4F)nc3c2C1', 1.1),
  ('Oc1nc2c(c3nc(-c4ccc(Cl)cc4)nn13)CN(Cc1ccccc1)CC2', 2.45),
  ('Oc1nc2c(c3nc(-c4ccccc4)nn13)CN(Cc1ccccc1)CC2', 1.4),
  ('COC(=O)CN1CCc2nc(O)n3nc(-c4ccccc4F)nc3c2C1', 1.06),
  ('Oc1nc2c(c3nc(-c4ccccc4Cl)nn13)CN(Cc1ccccc1)CC2', 1.4),
  ('NC(=O)N1CCc2nc(O)n3nc(-c4ccccc4F)nc3c2C1', 0.74),
  ('Oc1nc2c(c3nc(-c4ccccn4)nn13)CN(Cc1ccccc1)CC2', 1.6),
  ('Oc1nc2c(c3nc(-c4ccc[nH]4)nn13)CN(Cc1ccccc1)CC2', 1.65),
  ('Oc1nc2c(c3nc(-c4ccccc4F)nn13)CN(Cc1ccncc1)CC2', 1.14),
  ('Oc1nc2c(c3nc(-c4ccc(F)cc4)nn13)CN(Cc1ccccc1)CC2', 1.7),
  ('Oc1nc2c(c3nc(-c4cccc(F)c4)nn13)CN(Cc1ccccc1)CC2', 1.6),
  ('Oc1nc2c(c3nc(-c4ccccc4F)nn13)CN(Cc1ccccn1)CC2', 1.65),
  ('Oc1nc2c(c3nc(-c4ccccc4F)nn13)CN(Cc1cccnc1)CC2', 1.4),
  ('O=S(=O)(c1cccnc1)N1CCc2nc(O)n3nc(-c4ccccc4F)nc3c2C1', 1.3);

* * *

# SYSTEM_UNDER_TEST: GABA-A receptor; anion channel
# TEST_PROTOCOL: Displacement of [3H]flunitrazepam (FNZ) from GABA-A benzodiazepine receptor in rat forebrain
pIC50: −log10 of the molar value.
Catalogue of pIC50 readings, one per entry.
QUANTITY: pIC50

INSERT INTO results (molecule, modifier_sign, measurement) VALUES
  ('Oc1nc2c(c3nc(-c4ccccc4F)nn13)CN(Cc1ccncc1)CC2', '=', 8.72),
  ('Oc1nc2c(c3nc(-c4ccccc4F)nn13)CN(CCc1ccccc1)CC2', '=', 7.55),
  ('COC(=O)CN1CCc2nc(O)n3nc(-c4ccccc4F)nc3c2C1', '=', 7.57),
  ('CC(C)N1CCc2nc(O)n3nc(-c4ccccc4F)nc3c2C1', '=', 6.98),
  ('Oc1nc2c(c3nc(-c4ccc(F)cc4)nn13)CN(Cc1ccccc1)CC2', '=', 8.27),
  ('CC1c2nc(O)n3nc(-c4ccccc4F)nc3c2CN1Cc1ccccc1 (configuration not stated)', '<', 6.00),
  ('Oc1nc2c(c3nc(-c4ccccc4F)nn13)CN(Cc1ccccc1)CC2', '=', 9.36),
  ('Oc1nc2c(c3nc(-c4ccccc4F)nn13)CCC2', '=', 8.33),
  ('CCN1CCc2nc(O)n3nc(-c4ccccc4F)nc3c2C1', '=', 6.82),
  ('Oc1nc2c(c3nc(-c4ccccc4F)nn13)CN(Cc1cccnc1)CC2', '=', 9.13),
  ('O=S(=O)(c1cccnc1)N1CCc2nc(O)n3nc(-c4ccccc4F)nc3c2C1', '=', 8.27),
  ('Oc1nc2c(c3nc(-c4cccc(F)c4)nn13)CN(Cc1ccccc1)CC2', '=', 8.62),
  ('Oc1nc2c(c3nc(-c4ccccn4)nn13)CN(Cc1ccccc1)CC2', '=', 7.69),
  ('CCOC(=O)N1CCc2nc(O)n3nc(-c4ccccc4F)nc3c2C1', '=', 7.92),
  ('Oc1nc2c(c3nc(-c4ccccc4F)nn13)CCCC2', '=', 8.77),
  ('Cc1ccc(S(=O)(=O)N2CCc3nc(O)n4nc(-c5ccccc5F)nc4c3C2)cc1', '=', 8.75),
  ('NC(Cc1ccccc1)C(=O)N1CCc2nc(O)n3nc(-c4ccccc4F)nc3c2C1 (configuration not stated)', '<', 7.00),
  ('O=C(c1ccccc1)N1CCc2nc(O)n3nc(-c4ccccc4F)nc3c2C1', '=', 7.30),
  ('O=C(Nc1ccccc1)N1CCc2nc(O)n3nc(-c4ccccc4F)nc3c2C1', '=', 7.17),
  ('Oc1nc2c(c3nc(-c4ccccc4F)nn13)CN(Cc1ccccn1)CC2', '=', 9.19),
  ('Oc1nc2c(c3nc(-c4ccccc4F)nn13)CCCCC2', '=', 8.14),
  ('Oc1nc2c(c3nc(-c4ccccc4)nn13)CN(Cc1ccccc1)CC2', '=', 8.66);
